Values from PubChem BioAssay

- Measurement Notes: small-molecule binders of probe aLefty1, primary screen, biochemical, small-molecule microarray, 635/667 nm fluorescence (AID 1153);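 further: score merges spot fluorescence with signal-to-noise ratio from the scanned slide images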
- Experimental Setup: higher = more signal
Outcome label depends on composite z-score relative to -0.1: at/above gives YES, below gives NO.

The following compounds have reported results that may help.
{"Compound": "CCOC(=O)[C@H](Cc1ccccc1)NC(=O)CCC1CC(OC(=O)NCCc2ccc(F)cc2)CC2(CCCC(COC(=O)NCc3cccc(C(F)(F)F)c3)O2)O1 (some centres not stated)", "Answer Label": "YES"}
{"Compound": "CC(C)CON=C1C[C@@H](O)[C@@H](O)[C@@H]2[C@@H]3C(=O)N([C@@H](C)c4ccccc4)C(=O)[C@@H]3CC[C@@H]12", "Answer Label": "YES"}
{"Compound": "CC(C)CON=C1[C@H]2CCn3c(=O)n(C)c(=O)n3[C@H]2[C@H](O)[C@@H]2O[C@H]12", "Answer Label": "YES"}
{"Compound": "O=C1CCCC=C1C(O)c1ccc([N+](=O)[O-])cc1 (configuration not stated)", "Answer Label": "NO"}
{"Compound": "COC(=O)[C@H](C)NC(=O)CCC1CC(OC(=O)NCCc2ccc(F)cc2)CC2(CCCC(COC(=O)NCc3ccccc3)O2)O1 (some centres not stated)", "Answer Label": "YES"}

Prompt: Does composite z-score meet or surpass -0.1 for CO[C@@H](C1CCCCC1)[C@@H](C)[C@H](OCc1cccc(Br)c1)[C@@H](C)CO ?
Response: NO

Prompt: Does composite z-score meet or surpass -0.1 for O=C(NN=C1C[C@@H](O)[C@@H](O)[C@@H]2[C@@H]3C(=O)N(c4ccc(F)cc4F)C(=O)[C@@H]3CC[C@H]12)OCc1ccccc1 ?
Response: YES

Prompt: Does composite z-score meet or surpass -0.1 for O=C1[C@H]2[C@H]3[C@H](O)[C@H](O)CC(=NOCc4ccccc4)[C@H]3CC[C@H]2C(=O)N1C1CCCCC1 ?
Response: YES

====

- Measurement Notes: yeast growth modulation, basal conditions, primary screen, YJM789 clinical isolate, OD600, 24 h (AID 1089);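 further: growth of clinical yeast isolate S. cerevisiae YJM 789 seeded 1000 cells per well; test concentration not given here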
- Experimental Setup: S. cerevisiae YJM789 growth, higher = more signal, called active from +8 up or from −8 down
Calls of active or inactive are those of the source.
Catalogue of z-score values

{"Compound": "O=C1C2=CC[C@H]3C(=O)N(C4CCCCC4)C(=O)[C@H]3[C@H]2[C@H](O)[C@@H]2O[C@H]12", "z-score": "-0.163 (inactive)"}
{"Compound": "CCCNC(=O)OC[C@H]1O[C@H](CCON=C[C@@H](C)[C@H](OCc2ccccc2)C(C)C)C=C[C@@H]1Oc1ccc(OC)cc1", "z-score": "-2.24 (inactive)"}
{"Compound": "COC(=O)[C@H](Cc1ccccc1)NC(=O)[C@@H](C)CO", "z-score": "-0.152 (inactive)"}

Prompt: Return z-score for the following compound: CCC1=NOC(CCC2CC(OC(=O)NCc3cccc4c3OCO4)CC3(CCCC(COC(=O)NCCc4ccc(Cl)cc4)O3)O2)C1 (centres undefined)
Response: -0.57 (inactive)

====

Catalogue of z-score values
- Measurement Notes: cell viability in Huh7 cells, primary screen, cytotoxicity control for HCV replication inhibitor project, CellTiter-Glo luminescence, basal, 48 h (AID 1143);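 further: Huh7 hepatoma cells carrying a hepatitis C replication reporter with no stimulus; test concentration not given here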
- Experimental Setup: Huh7 HCV replicon, higher = more signal, called active from +8 up or from −8 down
Activity calls are given as the source filed them.

{"Molecule": "C[C@@H]1CC[C@H]2C(=O)OC(Cc3ccccc3)CN2[C@H]1c1ccc(Br)cc1 (stereo not given in full)", "z-score": "-0.395 (inactive)"}
{"Molecule": "CO[C@@H]1C=CCC(=O)N[C@@H](C)C(=O)OC[C@@H](OC)[C@H](C)C=CCC(=O)OC[C@H]1C", "z-score": "-0.0206 (inactive)"}
{"Molecule": "COC(=O)CC=C[C@@H](C)[C@@H](C=NOC(C)CN1CCCCc2nc(C)c(C)cc21)OC (stereo not given in full)", "z-score": "-0.211 (inactive)"}
{"Molecule": "CC(C)[C@@H](OCc1ccccc1)[C@H](C)C=NO[C@H](C)c1cn([C@@H]2COC[C@H]2O)nn1", "z-score": "-0.703 (inactive)"}
{"Molecule": "COc1ccc(COC(=O)NN=C2C[C@@H](O)[C@@H](O)[C@@H]3[C@@H]4C(=O)N(C(C)(C)C)C(=O)[C@@H]4CC[C@@H]23)cc1", "z-score": "0.22 (inactive)"}
{"Molecule": "CO[C@@H]1COC(=O)[C@H](COCc2ccccc2)NC(=O)CC=C[C@@H](C)[C@H](OC)COC(=O)[C@@H](C)NC(=O)CC=C[C@H]1C", "z-score": "-0.0313 (inactive)"}

Prompt: Return z-score for the following molecule: COc1ccc(O[C@H]2C=C[C@@H](c3ccccc3)O[C@@H]2CO)cc1
Response: -1.12 (inactive)

Prompt: Return z-score for the following molecule: COC(OC)[C@@H](C)[C@H](OC)[C@@H](C)[C@H](OC)c1ccccc1
Response: -0.609 (inactive)

Prompt: Return z-score for the following molecule: COc1cccc([C@H]2Oc3ccc(OC)cc3C(=NOCC[C@@H]3C=C[C@H](OC(C)=O)[C@@H](COC(C)=O)O3)[C@@H]2O)c1
Response: -0.0868 (inactive)

====

- System Name: Calmodulin-1 (Homo sapiens) (UniProt P0DP23)
- Measurement Notes: CALM1 binders on microarrays, EGTA buffer, profiling panel, biochemical, small-molecule microarray, Cy5-labelled CALM1 (AID 1111);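 further: labelled calmodulin applied in Tris saline Tween buffer holding calcium plus EGTA and DTT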
- Experimental Setup: Cy5-CALM1 binding fluorescence, higher = more signal
Endpoint: composite z-score
// response body must contain only the number

{"Compound": "CC(=O)OC[C@H]1O[C@H](C#CCC2CCCCC2)C=C[C@@H]1OC(C)=O", "System Name": "Calmodulin-1 (Homo sapiens) (UniProt P0DP23)", "composite z-score": 0.235}

Prompt: Return composite z-score for the following compound: COc1ccc(O[C@H]2C=C[C@@H](c3ccccc3)O[C@@H]2CON=C2c3cc(OC)ccc3O[C@H](c3cccc(OC)c3)[C@H]2O)cc1
Response: -0.0756

Prompt: Return composite z-score for the following compound: CC(CCN1CCCc2nc(C)c(C)cc21)=NO[C@H](C)c1cn([C@@H]2COC[C@H]2O)nn1
Response: -0.253

Prompt: Return composite z-score for the following compound: CC(CCN1CCc2nc(-c3ccccc3)c(-c3ccccc3)cc2C1)=NO[C@@H](C)c1cc(-c2c(C)cc(C)cc2C)no1
Response: 0.445

Prompt: Return composite z-score for the following compound: C[C@H]1CC[C@H]2C(=O)OC(COc3ccc(C(C)(C)C)cc3)CN2[C@@H]1c1ccc(Br)cc1 (stereo partly drawn)
Response: 0.464

Prompt: Return composite z-score for the following compound: CCc1cc2c(nc1CC)CCN(CCC(C)=NOC(C)CN1CCCCc3nc(C)c(C)cc31)C2 (stereo not drawn)
Response: 0.499

Prompt: Return composite z-score for the following compound: CC(C)CON=C1[C@H]2CCn3c(=O)n(C)c(=O)n3[C@H]2[C@H](O)[C@@H]2O[C@H]12
Response: -0.0875

Prompt: Return composite z-score for the following compound: COC(=O)[C@H](Cc1ccccc1)NC(=O)[C@@H](C)CO
Response: -0.597

====

- System Name: E3 ubiquitin-protein ligase XIAP (Homo sapiens) (UniProt P98170)
- Sequence (P98170 whole entry, looked up): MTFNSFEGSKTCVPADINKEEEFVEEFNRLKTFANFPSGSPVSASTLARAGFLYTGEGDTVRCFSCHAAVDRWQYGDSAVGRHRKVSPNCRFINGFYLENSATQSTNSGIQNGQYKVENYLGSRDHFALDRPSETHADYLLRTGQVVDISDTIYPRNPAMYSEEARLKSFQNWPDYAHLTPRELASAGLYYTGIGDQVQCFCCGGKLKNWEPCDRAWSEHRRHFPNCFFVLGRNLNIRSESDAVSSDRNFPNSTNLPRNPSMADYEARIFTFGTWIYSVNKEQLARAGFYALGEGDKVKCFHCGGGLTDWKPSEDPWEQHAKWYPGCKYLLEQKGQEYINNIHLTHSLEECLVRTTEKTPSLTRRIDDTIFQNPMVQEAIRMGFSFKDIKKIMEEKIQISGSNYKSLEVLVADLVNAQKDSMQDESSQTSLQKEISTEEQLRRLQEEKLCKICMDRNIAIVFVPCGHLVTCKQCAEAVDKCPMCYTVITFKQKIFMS
- Measurement Notes: XIAP binders, primary screen, biophysical, small-molecule microarray, fluorescence 635 nm (AID 1181);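 further: score merges 667 nm emission and signal to noise over triplicate slides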
- Experimental Setup: small-molecule microarray binding, higher = more signal
Catalogue of composite z-score values
// response body must contain only the number

{"Mol Smiles": "C=CC[C@@H]1C=C[C@H](ON=C2C[C@@H](O)[C@@H](O)[C@@H]3[C@@H]4C(=O)N(CC)C(=O)[C@@H]4CC[C@@H]23)[C@@H](CO)O1", "System Name": "E3 ubiquitin-protein ligase XIAP (Homo sapiens) (UniProt P98170)", "composite z-score": -0.289}

Prompt: Return composite z-score for the following molecule: CON=C(C)CCN1CCc2nc(-c3ccccc3)c(-c3ccccc3)cc2C1
Response: -0.0115

Prompt: Return composite z-score for the following molecule: C=CC[C@@H]1C=C[C@H](ON=C(C)CCN2CCCc3nc(C)c(C)cc32)[C@@H](CO)O1
Response: 1.07

Prompt: Return composite z-score for the following molecule: C=CC[C@@H]1C=C[C@H](ON=CC[C@@H]2C=C[C@H](OC(C)=O)[C@@H](COC(C)=O)O2)[C@@H](CO)O1
Response: -0.158

====

- Measurement Notes: basal MM1S mitochondrial membrane potential changes, profiling panel, cell-based, JC-1 fluorescence, 24 h, 100 nL compound (AID 1170); further: test concentration not given here
- Experimental Setup: higher = more signal
Endpoint: z-score

In the examples that follow, each entry is paired with its recorded z-score.
{"Compound": "CO[C@H]1COC(=O)[C@H](C)COC(=O)[C@@H](OCc2ccccc2)C=C[C@@H]1C", "z-score": 1.26}
{"Compound": "COc1cccc([C@H]2Oc3ccc(OC)cc3C(=NO[C@@H](C)c3cc(-c4c(C)cc(C)cc4C)no3)[C@@H]2O)c1", "z-score": 0.463}
{"Compound": "COC(=O)CC=C[C@@H](C)[C@@H](C=NOC[C@@H](C)[C@H](OCc1ccccc1)C(C)C)NS(=O)(=O)c1ccc(C)cc1", "z-score": -0.00529}
{"Compound": "COCC#Cc1ccc([C@@H]2N[C@H](C(=O)O)CC[C@H]2C)cc1", "z-score": 0.839}
{"Compound": "COC(=O)[C@H](C)NC(=O)CCC1CC(OC(=O)NCc2cccc3ccccc23)CC2(CCCC(COC(=O)NCc3ccccc3)O2)O1 (stereo partly specified)", "z-score": -0.845}
{"Compound": "CCOC(=O)NN=C1C[C@@H](O)[C@@H](O)[C@@H]2[C@@H]3C(=O)N(C[C@@H]4CCCO4)C(=O)[C@@H]3CC[C@H]12", "z-score": -0.229}

Prompt: Return z-score for the following compound: Cc1ccc(C(C)C)n1C(=O)OC(C)(C)C
Response: 0.196

Prompt: Return z-score for the following compound: COC(=O)[C@H](C)NC(=O)CCC1CC(OC(=O)NCc2ccc3c(c2)OCO3)CC2(CCCC(COC(=O)NCCCN3CCCC3=O)O2)O1 (stereo partly specified)
Response: 0.224
